B1: HDV Ribozyme (parent)
chain: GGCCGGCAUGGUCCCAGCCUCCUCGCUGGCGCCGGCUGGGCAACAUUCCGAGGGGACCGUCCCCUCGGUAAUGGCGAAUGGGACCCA

- Variants of: B1
- method description: self-cleavage, relative activity (ratio to wild type); higher = more cleavage; co-transcriptional
Think of 0.2 as a floor: if self-cleavage stands on it or above, it is T; beneath it, F.

# changes, assigned label
measured = [
    ("G25U A87U", "F"),
]

Request: State whether the measured self-cleavage reaches 0.2, counting equality as reaching it, for C7U C62A
Response: T

Request: State whether the measured self-cleavage reaches 0.2, counting equality as reaching it, for C30G U69G
Response: F

Request: State whether the measured self-cleavage reaches 0.2, counting equality as reaching it, for G2U U12C
Response: F

Request: State whether the measured self-cleavage reaches 0.2, counting equality as reaching it, for C21A C48A
Response: F

Request: State whether the measured self-cleavage reaches 0.2, counting equality as reaching it, for A16G G73A
Response: T

Request: State whether the measured self-cleavage reaches 0.2, counting equality as reaching it, for A56U U72G
Response: T
